Where do the numbers come from? From PubChem BioAssay (NCI).

Test system: HCC-2998 colon
Experiment description: NCI tumour cell line growth inhibition, 48 h
Measured GI50, listed per entry.
Outcome measure: GI50

# Smi, Outcome measure, Reported value
rows = [
    ("O=C1C(=O)c2c(ccc3ccccc23)-c2ccccc21", "GI50", "2650 nM"),
    ("COc1cc(/C=C/C(=O)c2c(-c3ccc(Cl)cc3)nc3sc(C)nn23)cc(OC)c1OC", "GI50", "> 100000 nM"),
    ("Cc1c(-c2ccc(N3CCc4cccc(C(=O)Nc5nc6ccccc6s5)c4C3)nc2C(=O)O)cnn1CC12CC3CC(CC(C3)C1)C2", "GI50", "< 32.9 nM"),
    ("Oc1ccc(CCNc2nc3ccccc3c3[nH]c4ccccc4c23)cc1", "GI50", "1560 nM"),
    ("ClCc1ccc(Cn2cnc3nc(Cl)nc(Cl)c32)cc1", "GI50", "1620 nM"),
    ("CS(=O)(=O)Nc1ccc(Nc2c3ccccc3nc3cc(Cl)ccc23)cc1", "GI50", "7570 nM"),
    ("Cc1cccc(Cc2cnc(NC(=O)CCCOc3ccc(Cl)cc3)s2)c1", "GI50", "9460 nM"),
    ("COc1ccc(-c2ccc(/C=N/n3c(COc4ccc(Cl)c(C)c4)nn(CN4CCOCC4)c3=S)o2)c([N+](=O)[O-])c1", "GI50", "16500 nM"),
    ("C/C(=N\\NC(=O)c1ccncc1)c1ccccc1O", "GI50", "2370 nM"),
]

* * *

Test system: MDA-MB-435
Possible outcomes: active, inactive

# Compound, Class
data = [
    ("COC1=C(C)C(=O)C2=C(C1=O)C1C3CC4=C(C(=O)C(OC)=C(C)C4=O)C(CNC(=O)C(C)=O)N3C(C#N)C(C2)N1C (stereo not given)", "active"),
    ("OCCn1c(-c2ccncc2)c(-c2ccc(F)cc2)c2ncccc21", "inactive"),
    ("Cc1cccc(Cc2cnc(NC(=O)CCCOc3ccc(Cl)cc3)s2)c1", "inactive"),
    ("Cc1c(-c2ccc(N3CCc4cccc(C(=O)Nc5nc6ccccc6s5)c4C3)nc2C(=O)O)cnn1CC12CC3CC(CC(C3)C1)C2", "inactive"),
    ("COc1ccc(Cl)cc1Nc1nc(C(F)(F)F)ccc1C(=O)N/N=C/c1ccc(Cl)cc1", "inactive"),
]

* * *

Test system: SK-OV-3 ovarian
Experiment description: NCI tumour cell line growth inhibition, 48 h

# Molecule, Target desc, TGI
measured = [
    ("Nc1ccc2ncc(Nc3ccc(Cl)c(Cl)c3)nc2c1", "SK-OV-3 ovarian", "> 100 µM"),
    ("COC(=O)C(NC(=O)c1ccccc1)c1ccc(OC)c(I)c1 (stereo not given)", "SK-OV-3 ovarian", "> 100 µM"),
    ("CC(=O)CC(=O)N1CCOC1=O", "SK-OV-3 ovarian", "> 10 µM"),
    ("Nc1nc2c(ccc3ccccc32)[nH]1", "SK-OV-3 ovarian", "> 10 µM"),
    ("NS(=O)(=O)C1CCCCC1C(=O)NNC(=O)C(=O)Nc1nc(=S)[nH][nH]1 (stereo not given)", "SK-OV-3 ovarian", "> 100 µM"),
    ("Cn1c(=O)c(Oc2ccc(F)cc2F)cc2cnc(NC3CCC(O)CC3)nc21 (stereo not given)", "SK-OV-3 ovarian", "> 25 µM"),
    ("CC(C)[C@H](NC(=O)OCc1ccccc1)C(=O)N[C@H](/C=C/C(=O)OC(C)(C)C)CO", "SK-OV-3 ovarian", "> 100 µM"),
    ("CCOP(=O)(OCC)/C(C#N)=C(\\C)c1ccco1", "SK-OV-3 ovarian", "> 10 µM"),
    ("Cc1ccc(C(=O)C2CC3(CCC2(O)c2ccc(C)cc2)CC(=O)Nc2ccccc2C3=O)cc1 (stereo not given)", "SK-OV-3 ovarian", "> 100 µM"),
    ("CC(C)c1nc(Cl)c(Cl)c(Cl)n1", "SK-OV-3 ovarian", "37.9 µM"),
]
